We begin with a simple list: items and their reported Relative to UNC0638 Average.
Target: T1, G9a and GLP (Homo sapiens, UniProt Q96KQ7+Q9H9B1)
T1 sequence (Q96KQ7 2-1210 limits assumed): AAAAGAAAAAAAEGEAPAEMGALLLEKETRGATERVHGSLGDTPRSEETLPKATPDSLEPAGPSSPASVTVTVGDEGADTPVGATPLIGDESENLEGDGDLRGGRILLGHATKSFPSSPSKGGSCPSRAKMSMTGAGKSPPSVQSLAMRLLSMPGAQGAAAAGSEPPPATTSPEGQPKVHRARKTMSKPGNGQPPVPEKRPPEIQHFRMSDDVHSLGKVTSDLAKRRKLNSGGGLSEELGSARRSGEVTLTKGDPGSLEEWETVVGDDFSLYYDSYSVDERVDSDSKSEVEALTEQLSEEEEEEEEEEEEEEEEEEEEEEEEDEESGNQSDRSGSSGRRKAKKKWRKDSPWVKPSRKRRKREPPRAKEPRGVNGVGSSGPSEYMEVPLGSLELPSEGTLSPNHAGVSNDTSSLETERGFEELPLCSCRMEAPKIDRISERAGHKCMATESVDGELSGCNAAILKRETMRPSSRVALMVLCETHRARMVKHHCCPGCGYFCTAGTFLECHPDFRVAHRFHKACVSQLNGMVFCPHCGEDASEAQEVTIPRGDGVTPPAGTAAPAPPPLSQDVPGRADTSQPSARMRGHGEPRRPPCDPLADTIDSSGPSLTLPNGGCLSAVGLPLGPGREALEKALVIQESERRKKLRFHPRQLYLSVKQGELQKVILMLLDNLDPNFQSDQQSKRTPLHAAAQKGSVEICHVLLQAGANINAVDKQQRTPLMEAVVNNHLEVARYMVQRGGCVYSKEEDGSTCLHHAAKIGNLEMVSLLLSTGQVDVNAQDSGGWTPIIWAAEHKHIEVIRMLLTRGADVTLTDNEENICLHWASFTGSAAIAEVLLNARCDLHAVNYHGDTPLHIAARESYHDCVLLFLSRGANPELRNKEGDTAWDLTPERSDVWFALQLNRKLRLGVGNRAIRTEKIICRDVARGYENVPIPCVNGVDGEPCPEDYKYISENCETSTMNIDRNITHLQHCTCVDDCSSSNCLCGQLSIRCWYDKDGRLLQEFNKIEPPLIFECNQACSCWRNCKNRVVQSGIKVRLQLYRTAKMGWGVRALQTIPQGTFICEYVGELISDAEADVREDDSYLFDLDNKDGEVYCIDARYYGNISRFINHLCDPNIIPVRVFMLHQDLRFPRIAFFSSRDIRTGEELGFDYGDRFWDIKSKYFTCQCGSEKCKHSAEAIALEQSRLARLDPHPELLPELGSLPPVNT
T1 sequence (Q9H9B1 2-1298 limits assumed): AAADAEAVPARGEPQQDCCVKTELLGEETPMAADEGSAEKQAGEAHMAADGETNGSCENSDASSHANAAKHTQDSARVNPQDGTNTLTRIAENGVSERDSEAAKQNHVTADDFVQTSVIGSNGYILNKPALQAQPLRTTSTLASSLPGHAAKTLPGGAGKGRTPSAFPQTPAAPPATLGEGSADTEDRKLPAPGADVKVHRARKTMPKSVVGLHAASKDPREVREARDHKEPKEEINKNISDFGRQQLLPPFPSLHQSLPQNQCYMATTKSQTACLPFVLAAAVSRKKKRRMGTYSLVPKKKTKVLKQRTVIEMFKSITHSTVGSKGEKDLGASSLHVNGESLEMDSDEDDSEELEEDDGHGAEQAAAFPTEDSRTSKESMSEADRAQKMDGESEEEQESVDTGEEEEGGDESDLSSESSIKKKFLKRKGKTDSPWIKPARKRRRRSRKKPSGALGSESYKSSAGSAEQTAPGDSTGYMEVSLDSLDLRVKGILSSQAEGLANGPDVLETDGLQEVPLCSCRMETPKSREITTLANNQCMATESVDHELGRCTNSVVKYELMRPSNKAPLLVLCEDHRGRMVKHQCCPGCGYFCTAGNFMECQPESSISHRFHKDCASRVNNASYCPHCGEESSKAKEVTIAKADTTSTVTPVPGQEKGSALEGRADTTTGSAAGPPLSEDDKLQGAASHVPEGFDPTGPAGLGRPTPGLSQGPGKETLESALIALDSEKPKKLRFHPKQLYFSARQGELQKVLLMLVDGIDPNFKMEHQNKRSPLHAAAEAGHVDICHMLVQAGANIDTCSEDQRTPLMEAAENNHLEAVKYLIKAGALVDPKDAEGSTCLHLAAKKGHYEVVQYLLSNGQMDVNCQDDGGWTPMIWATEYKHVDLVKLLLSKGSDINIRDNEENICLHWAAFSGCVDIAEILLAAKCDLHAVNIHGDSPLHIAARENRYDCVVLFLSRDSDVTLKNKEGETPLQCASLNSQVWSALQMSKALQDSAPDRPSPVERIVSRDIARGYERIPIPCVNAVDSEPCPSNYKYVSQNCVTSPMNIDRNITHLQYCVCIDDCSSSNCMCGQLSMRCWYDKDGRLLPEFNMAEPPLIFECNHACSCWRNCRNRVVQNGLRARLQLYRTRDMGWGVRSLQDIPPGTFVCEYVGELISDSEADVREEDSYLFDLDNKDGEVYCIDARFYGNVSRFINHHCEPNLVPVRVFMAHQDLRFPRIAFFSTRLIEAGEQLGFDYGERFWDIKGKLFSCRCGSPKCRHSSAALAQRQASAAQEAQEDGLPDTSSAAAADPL
Assay: Triple SILAC pull-down after UNC0638 treatment of 293T cells, DMSO/UNC0638 ratio of protein captured by 3×MBT;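 note: mass spectrometry (Q-Exactive) SILAC quantitation, DMSO/UNC0638 ratio computed after subtracting 3×MBTD355N mutant pull-down background, only proteins with at least twofold 3×MBT over mutant signal considered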
Type: cell-based
Parameters: cells were treated for 24 hours with UNC0638 at 2.5 μM or DMSO vehicle control; endogenous in cells; host or cells: HEK 293T
Details: average of UNC Light and UNC Heavy experiments; all values in log base 2
VALUE TYPE: Relative to UNC0638 Average

INSERT INTO assay_data (molecule, obs_value) VALUES
  ('EEF1B2 (protein, UniProt P24534 2-225, looked up) Elongation factor 1-beta: GFGDLKSPAGLQVLNDYLADKSYIEGYVPSQADVAVFEAVSSPPPADLCHALRWYNHIKSYEKEKASLPGVKKALGKYGPADVEDTTGSGATDSKDDDDIDLFGSDDEEESEEAKRLREERLAQYESKKAKKPALVAKSSILLDVKPWDDETDMAKLEECVRSIQADGLVWGSSKLVPVGYGIKKLQIQCVVEDDKVGTDMLEEQITAFEDYVQSMDVAAFNKI', '−0.31 log base 2'),
  ('DUSP3 (protein, UniProt P51452 1-185, looked up) Dual specificity protein …: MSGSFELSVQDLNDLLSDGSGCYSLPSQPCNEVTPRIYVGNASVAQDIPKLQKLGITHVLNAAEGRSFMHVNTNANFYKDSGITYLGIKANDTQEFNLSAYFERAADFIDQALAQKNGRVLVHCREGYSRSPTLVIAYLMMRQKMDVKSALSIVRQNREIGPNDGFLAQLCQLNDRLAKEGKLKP', '−0.44 log base 2'),
  ('TK1 (protein, UniProt P04183 2-234, looked up) Thymidine kinase, cytosolic: SCINLPTVLPGSPSKTRGQIQVILGPMFSGKSTELMRRVRRFQIAQYKCLVIKYAKDTRYSSSFCTHDRNTMEALPACLLRDVAQEALGVAVIGIDEGQFFPDIVEFCEAMANAGKTVIVAALDGTFQRKPFGAILNLVPLAESVVKLTAVCMECFREAAYTKRLGTEKEVEVIGGADKYHSVCRLCYFKKASGQPAGPDNKENCPVPGKPGEAVAARKLFAPQQILQCSPAN', '0.07 log base 2'),
  ('NPM3 (protein, UniProt O75607 2-178, looked up) Nucleoplasmin-3: AAGTAAALAFLSQESRTRAGGVGGLRVPAPVTMDSFFFGCELSGHTRSFTFKVEEEDDAEHVLALTMLCLTEGAKDECNVVEVVARNHDHQEIAVPVANLKLSCQPMLSLDDFQLQPPVTFRLKSGSGPVRITGRHQIVTMSNDVSEEESEEEEEDSDEEEVELCPILPAKKQGGRP', '0.08 log base 2'),
  ('CGGBP1 (protein, UniProt Q9UFW8 1-167, looked up) CGG triplet repeat-binding …: MERFVVTAPPARNRSKTALYVTPLDRVTEFGGELHEDGGKLFCTSCNVVLNHVRKSAISDHLKSKTHTKRKAEFEEQNVRKKQRPLTASLQCNSTAQTEKVSVIQDFVKMCLEANIPLEKADHPAVRAFLSRHVKNGGSIPKSDQLRRAYLPDGYENENQLLNSQDC', '0.09 log base 2');
